Source: ChEMBL document CHEMBL6092153

# assay_overview: Antiproliferative activity against human HaCaT cells assessed as inhibition of cell growth incubated for 48 hrs by SRB assay
# Assay type: toxicity, cell-based
quantity_kind: IC50 at 48 h (nM)

1) Cc1sc2c(c1C)C(c1ccc(Cl)cc1)=N[C@@H](CC(=O)OC(C)(C)C)c1nnc(C)n1-2    320

----------
# Tested on: KYSE-450
# assay_overview: Antiproliferative activity against human KYSE-450 cells assessed as reduction in cell growth incubated for 48 hrs by MTT assay
# Format: functional, cell-based
# reported_conditions: KYSE-450, 48 h
pIC50: −log10 of the molar value.
quantity_kind: pIC50

1. Cc1sc2c(c1C)C(c1ccc(Cl)cc1)=N[C@@H](CC(=O)OC(C)(C)C)c1nnc(C)n1-2    6.90

----------
# Test system: KYSE-510
# assay_overview: Antiproliferative activity against human KYSE-510 cells assessed as reduction in cell growth incubated for 48 hrs by MTT assay
# Format: functional, cell-based
# reported_conditions: KYSE-510, 48 h
pIC50: −log10 of the molar value.
quantity_kind: pIC50

1. Cc1sc2c(c1C)C(c1ccc(Cl)cc1)=N[C@@H](CC(=O)OC(C)(C)C)c1nnc(C)n1-2    6.92
